Exercise: state measured inhibition for each of the compounds provided.
biological target: Leucine aminopeptidase (Plasmodium falciparum (isolate 3D7)); test: P. falciparum M17LAP inhibitors, primary screen, biochemical, fluorogenic H-Leu-NHMec substrate, 1536-well (AID 1619); conditions: recombinant M17LAP, H-Leu-NHMec fluorogenic kinetic assay; at 30 µM; active compounds read high;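 note: plate controls were full reaction with DMSO carrier for no effect and no enzyme background for full effect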
In all, about 220,000 compounds went through this assay and about 830 (0.38%) were called active. The list is a sample of the results. Results with a measured potency or affinity are listed apart.
// note: answer is a bare numeric in %

Prompt: Which inhibition value belongs to `COc1ccc(NC(=O)CSc2nnc(NC(=O)c3ccco3)s2)cc1` ?
Response: 22.5

Prompt: Given the entry `CC(=O)c1ccc(Nc2ccc(-c3ccccc3F)nn2)cc1` , report its measured inhibition.
Response: 28.4

Prompt: # query: inhibition of entry `CCOC(=O)Cn1nnnc1CN(Cc1ccc(OC)cc1)Cc1cc2cc(CC)ccc2[nH]c1=O`
Response: 7.13

Prompt: Return reported inhibition; argument: `CCOC(=O)N1CCC(NC(=O)c2cc(S(=O)(=O)N3CCOCC3)ccc2F)CC1`
Response: -2.28

Prompt: Consider the compound shown here: `N#C/C(=C/c1ccc(N2CCOCC2)o1)C(=O)Nc1ccccc1` What is its recorded inhibition?
Response: 11.7

Prompt: // inhibition lookup, key: CCOC(=O)c1[nH]c2ccc(Br)cc2c1NC(=O)CCN1CCCC(C)C1 (centres undefined)
Response: 19.3

Prompt: What measured inhibition goes with `O=c1c2ccccc2nnn1Cc1ccc2ccccc2c1` ?
Response: -5.34

Prompt: inhibition for `O=C(Nc1ccc(OC(F)(F)F)cc1)Nc1cccc([N+](=O)[O-])c1` ?
Response: 2.58

Prompt: inhibition for `N#C/C(=C\c1ccc(N2CCOCC2)o1)C(=O)NC1CCCCC1` ?
Response: 48.6

Prompt: I would be grateful if you could share the reported inhibition for `COc1ccc(NC(=O)Nc2ccc(CC(=O)O)cc2)cc1` .
Response: 2.73

Prompt: // lookup inhibition for N#C/C(=C\c1ccc(N2CCOCC2)o1)C(=O)NCC1CCCO1 (centres undefined)
Response: 51

Prompt: Please give the measured inhibition for this compound: CC(=O)C1=C(O)C(=O)N(c2ccc(S(N)(=O)=O)cc2)C1c1ccc([N+](=O)[O-])cc1 (centres undefined)
Response: 23

Prompt: // inhibition lookup, key: COc1ccc(NC(C)C(=O)N/N=C/c2ccccc2OCc2cccc(Br)c2)cc1 (centres undefined)
Response: 3.79

Prompt: Field request: inhibition | item: `Cc1cc(C)c(-c2c(O)c3cnn(-c4ccccc4)c3[nH]c2=O)c(C)c1`
Response: 13.5

Prompt: Name the recorded inhibition for `O=C(N/N=C/c1cccc(O)c1)c1ccc(COc2cccc3cccnc23)cc1` .
Response: 3.53

Prompt: Look up inhibition: `O=C(Nc1cccc(Cl)c1)Nc1cccc(Cl)c1`
Response: 1.69

Prompt: Dear colleague, I am looking for the recorded inhibition of the following compound: CC1CCCCN1S(=O)(=O)c1ccc(N(C(=O)c2cnccn2)C(C(=O)NC2CCCCC2)c2cccs2)cc1 (centres undefined)
Response: -5

Prompt: Need inhibition of `CC(C)NC(=S)N1CCN(c2ncccn2)CC1` , thanks.
Response: -3.12

Prompt: Item `CC(=O)Nc1ccc(C2=NN(C)C(=NCc3ccccc3)SC2)cc1` has what recorded inhibition?
Response: -2.31

Prompt: For the compound `Cc1cc(=O)n(CNC(=O)c2ccccc2)c(=S)[nH]1` , what inhibition is on record?
Response: -9.25

Prompt: Value lookup for inhibition; key = CCCOC(=O)c1c(-c2ccc(C)cc2C)csc1NC(=O)C1C2CCC(O2)C1C(=O)O (centres undefined)
Response: 44.7

Prompt: If you can, please state the reported inhibition value of NC(=O)CN(c1ccccc1)C1SC(=O)N(Cc2ccccc2)C1=O (centres undefined) .
Response: -3.19

Prompt: Given the entry `CC(=O)CC(C)(C)Nc1nc2ccc([N+](=O)[O-])cc2o1` , report its measured inhibition.
Response: 13.3

Prompt: // lookup inhibition for `CCCCOc1ccc(C(=O)OCC(=O)Nc2cc(C)on2)cc1`
Response: 2.23

Prompt: Look up inhibition: CN(Cc1cnccn1)C(=O)CC1C(=O)NCCN1Cc1c(F)cccc1Cl (centres undefined)
Response: 4.09

Prompt: inhibition for `Cc1cccc(C)c1NC(=O)CSc1nnc(NC(=O)c2ccccc2C(=O)O)s1` ?
Response: 19.1

Prompt: Query: inhibition; subject: O=C(O)CN1C(=O)SC(Nc2ccccc2)C1=O (centres undefined)
Response: 15.1

Prompt: For the compound shown here, COc1ccc(CN2CCN(C(C)C)C(CCO)C2)cc1Cn1cncn1 (centres undefined) , give the reported inhibition.
Response: 1.4

Prompt: Entry under review: `CC(C)c1nnc(NC(=O)CSc2nnc(NC(=O)c3c(F)cccc3F)s2)s1` . Reported inhibition?
Response: 2.85
